The reported numbers originate from the supplement of paper PMC9170038.

tested on: K4 kissing-loop RNA reporter; experiment: apparent KD of K4 kissing-loop reporter; higher = weaker reporter binding; conditions: Eterna round: R107; input ligand: arginine 13.2 mM;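 note: bound reporter read as fluorescence of individual clusters on recovered sequencing chips by microscopy, with normalized cluster intensities fitted with a binding model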
MEASURED METRIC: apparent KD of K4 kissing-loop reporter (µM)
Answers are plain numbers, in µM.

Guide cases for apparent KD of K4 kissing-loop reporter, answers given:
UUUUGGUUCUGAGGAUAUUCGAAGAAAUAUAGUGAUGUUAUAUAAGGAGGAGGAUGGAGGGAGGAAGGAGAAGGCAGAAGAGGAG [ExFMNB.I] : 0.492
AAAAUAAAUAGCAGUCAUGGAGUGAUGUUCCGAGGACCGGUACGGCCGCCACUCGACCAUCAUAAGAUGGAAUGGCAAGACUGCA [#SwitchBubble 23 #K4Early] : 0.265
UAACUGCAGUGAUGUUGCAGAUGUCCUGACUAGGAUAUCAGGAAACUGAGAAGGAGUGCCUUCUAAACAUCACAGAAGGUGGACA [KL-SSFMN-A28] : 0.44

QUERY: Need apparent KD of K4 kissing-loop reporter of UGAUACCAGACGGCCGCCACUUCCGCAAGUCAAAGACUUGCCAAGGGAAUCGUCCAGUGAUGUUGGAGGACCGGGUCUGGUAUCU [FiskerMod 4 - Jieux - Exclusion - Tryptophan B] , thanks.
RESULT: 0.516

###

test system: MS2 coat protein; experiment: apparent KD of MS2 coat protein; designed switch direction (-1 OFF switch, 1 ON switch): 1; higher = weaker reporter binding; conditions: input ligand: FMN 200 uM
Record form. Attribute: apparent KD of MS2 coat protein. Fill in for each entry.

Guide cases for apparent KD of MS2 coat protein, answers given:
GGUGGGUUACUACCAACACAUGAGGAUCACCCAUGUUUUGGGAAGGAUAUGGUACCUAUUUGGUACCAGAAGGUCCAGUUAAUG [salish99_SSNG3_r04_702] (Eterna round: R96, puzzle: Same State NG 3) : 51.4 nM
CUGAGCGAUCGAGGAUAUCACGUCGUUUAGACGUGAGAAGGCGAUCAUAACAUGAGGAUCACCCAUGUAUUACAUGAAGCUCAG [SSNG1/4-A3] (Eterna round: R96, puzzle: Same State NG 1) : 16.8 nM
AGAUCAUGACGAGGAUAUCCGACAUGAGGAUCACCCAUGUAUGUCGGAGGACGAAUACGUCCAAAGGAGAAGGCGUCGUGGUCA [Mat - Same State NG 2 - JL mod - D38] (Eterna round: R96, puzzle: Same State NG 2) : 25.2 nM

For the next question, use this sequence.
QUERY: Need apparent KD of MS2 coat protein of CUGAGCGAUCAAGGAUAUCACGUCGAUUAGACGUGAGAAGGUGAUCCAUACAUGAGGAUCACCCAUGUAUAACAUGAAGCUCAG [SSNG1/8-A2] (Eterna round: R96, puzzle: Same State NG 1) , thanks.
RESULT: 414 nM

###

tested on: MS2 coat protein; experiment: apparent KD of MS2 coat protein; designed switch direction (-1 OFF switch, 1 ON switch): -1; higher = weaker reporter binding; conditions: Eterna round: R95; input ligand: none
MEASURED METRIC: apparent KD of MS2 coat protein (nM)
Answers are plain numbers, in nM.

Guide cases for apparent KD of MS2 coat protein, answers given:
CUGGUCCGAGGAUAUAUUAAGUGAUACAUGAGGAUCACCCAUGUAAUUUAAUGGAAGUAAAUAGAAGGCGGACUAG [Mat - Exclusion 5 - JL mod - D50] (puzzle: Exclusion 5) : 80.5
GGGCAGUCAGGAUAUACAUGAGGAUCACCCAUGUUGAGAUGUGAAAGGGCGGGAGUAGGUAGAAGGGACGAGAG [JR_Exclu3_Sub041] (puzzle: Exclusion 3) : 29.9
UAGAAACAUGAGGAUCACCCAUGUGAGGAUAUGAAAAAGAAAAGAAAAGAAAGAAGAAUCAGAAGGCACAAAGU [salish99-ex1_r3_087] (puzzle: Exclusion 1) : 32.3

Provide each entry's apparent KD of MS2 coat protein from the list below.
1. GGUUGGCGAGGAUAUACAUGAGGAUCACCCAUGUGAGAGAAACUAGUGAGGUCGAUUGGUAGAAGGCGCUGACG [Mat - Exclusion 3 - Mod of JL D81] (puzzle: Exclusion 3)
2. CAAAAGGUAGGAUAUUAUGCCUGUAACAUGAGGAUCACCCAUGUGGUCCGAGACGGAGUUUAAGAAGGACCGAAAA [Masomariat] (puzzle: Exclusion 5)
3. AAAUUACAAGCAAGAUCCUACAUGAGGAUCACCCAUGUGCUCGUCUUAUAAAGUACUAUCACGAAAGUGAUAGUACA [Mat - Sensor v3 - turn-off var 1 - Eli Mod - D58] (puzzle: Sensor v3, turn-off variant 1)
4. UCGACGUAAGGAUAUAUAAGGAACGAAGUAAGUUGUAGAAAAUAGAAGGUACAUGAGGAUCACCCAUGUUAAGA [JR_Exclu4_Sub061] (puzzle: Exclusion 4)
5. CGUGACUGAGGAUAUCUAUAUUAUCACAUGAGGAUCACCCAUGUCCAGCGAAAGCUGGAGGGAGAAGGCAGUCACG [Fiskers Ex 5 - 28] (puzzle: Exclusion 5)

RESULT:
1. 129
2. 190
3. 329
4. 18.9
5. 32.4
